- assayTarget: Plasminogen (Rattus norvegicus)
- testDescription: Evaluated for the inhibition of plasmin.(no inhibition at 400 uM)
Where a SMILES comes first, the peptide text is derived from it. [ ]: non-standard residue; d: D form. The star is where a group is joined. Orn = NCCC[C@H](N)C(=O)O; Cbz = O=C(OCc1ccccc1)*
measuredMetric: IC50

compound="CC(C)C[C@H](NC(=O)OCc1ccccc1)C(=O)N[C@@H](CC(C)C)C(=O)N[C@H](C=O)CCCN (Cbz-Leu-Leu-[Orn]-aldehyde)" experimentalresult="> 400 µM"

====

Each entry below lists one item and its recorded IC50 value.
- assayTarget: Serine protease 1 (Homo sapiens, UniProt P07477)
- Sequence (P07477 whole entry): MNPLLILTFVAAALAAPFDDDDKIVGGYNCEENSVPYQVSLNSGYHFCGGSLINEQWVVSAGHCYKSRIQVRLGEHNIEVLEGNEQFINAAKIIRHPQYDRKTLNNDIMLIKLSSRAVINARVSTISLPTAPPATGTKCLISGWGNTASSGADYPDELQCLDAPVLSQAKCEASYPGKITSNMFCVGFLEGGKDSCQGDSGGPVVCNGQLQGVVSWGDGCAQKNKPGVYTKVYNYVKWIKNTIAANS
- testDescription: Evaluated for the inhibition of trypsin
Where a SMILES comes first, the peptide text is derived from it. The star is where a group is joined. Cbz = O=C(OCc1ccccc1)*
measuredMetric: IC50 (µM)

molecule=CC(C)C[C@H](NC(=O)OCc1ccccc1)C(=O)N[C@@H](CC(C)C)C(=O)N[C@H](C=O)CCCN=C(N)N assaytarget="Serine protease 1 (Homo sapiens, UniProt P07477)" unitspec=µM experimentalresult=164
molecule="CC(C)C[C@H](NC(=O)OCc1ccccc1)C(=O)N[C@@H](CC(C)C)C(=O)N[C@H](C=O)CCCCN (Cbz-Leu-Leu-Lys-aldehyde)" assaytarget="Serine protease 1 (Homo sapiens, UniProt P07477)" unitspec=µM experimentalresult=196
molecule="CC(C)C[C@H](NC(=O)OCc1ccccc1)C(=O)N[C@@H](Cc1ccccc1)C(=O)N[C@H](C=O)CCCN=C(N)N (Cbz-Leu-Phe-Arg-aldehyde)" assaytarget="Serine protease 1 (Homo sapiens, UniProt P07477)" unitspec=µM experimentalresult=107
molecule="CC(C)C[C@H](NC(=O)[C@H](Cc1ccccc1)NC(=O)OCc1ccccc1)C(=O)N[C@H](C=O)CCCN=C(N)N (Cbz-Phe-Leu-Arg-aldehyde)" assaytarget="Serine protease 1 (Homo sapiens, UniProt P07477)" unitspec=µM experimentalresult=45.9
molecule="CC(C)C[C@H](NC(=O)OCc1ccccc1)C(=O)N[C@H](C(=O)N[C@H](C=O)CCCN=C(N)N)C(C)C (Cbz-Leu-Val-Arg-aldehyde)" assaytarget="Serine protease 1 (Homo sapiens, UniProt P07477)" unitspec=µM experimentalresult=81.4

====

- assayTarget: Plasminogen (Rattus norvegicus, UniProt Q01177)
- Sequence (Q01177 97-581 limits assumed): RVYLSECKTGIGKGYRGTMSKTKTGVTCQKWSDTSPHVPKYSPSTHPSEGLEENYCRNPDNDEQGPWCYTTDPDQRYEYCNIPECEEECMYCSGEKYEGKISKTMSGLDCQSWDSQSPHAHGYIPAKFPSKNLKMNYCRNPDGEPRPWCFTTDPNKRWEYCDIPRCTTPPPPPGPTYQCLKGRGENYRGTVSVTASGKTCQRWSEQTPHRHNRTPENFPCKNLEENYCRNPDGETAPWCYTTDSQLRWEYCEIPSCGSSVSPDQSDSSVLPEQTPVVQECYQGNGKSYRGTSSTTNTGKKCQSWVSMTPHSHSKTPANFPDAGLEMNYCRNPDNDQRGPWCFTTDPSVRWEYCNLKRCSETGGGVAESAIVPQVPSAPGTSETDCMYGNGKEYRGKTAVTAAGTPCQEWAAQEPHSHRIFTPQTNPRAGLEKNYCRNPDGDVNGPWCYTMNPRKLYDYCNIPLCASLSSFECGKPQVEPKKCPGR
- Sequence (Q01177 582-812 limits assumed): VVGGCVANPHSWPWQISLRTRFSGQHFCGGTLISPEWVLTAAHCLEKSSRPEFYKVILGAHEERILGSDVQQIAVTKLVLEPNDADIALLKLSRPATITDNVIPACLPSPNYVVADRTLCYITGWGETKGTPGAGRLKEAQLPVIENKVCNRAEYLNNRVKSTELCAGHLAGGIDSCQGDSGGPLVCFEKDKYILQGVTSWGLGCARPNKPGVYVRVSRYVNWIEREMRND
- testDescription: Inhibition of plasmin
pIC50: −log10 of the molar value. Where a SMILES comes first, the peptide text is derived from it. [ ]: non-standard residue; d: D form. The star is where a group is joined. Orn = NCCC[C@H](N)C(=O)O; Cbz = O=C(OCc1ccccc1)*
measuredMetric: pIC50

molecule="CC(C)C[C@H](NC(=O)[C@H](Cc1ccccc1)NC(=O)OCc1ccccc1)C(=O)N[C@H](C=O)CCCN=C(N)N (Cbz-Phe-Leu-Arg-aldehyde)" experimentalresult=4.99
molecule="CC(C)C[C@H](NC(=O)[C@H](Cc1ccccc1)NC(=O)OCc1ccccc1)C(=O)N[C@H](C=O)CCCN (Cbz-Phe-Leu-[Orn]-aldehyde)" experimentalresult=3.62
molecule="CC(C)C[C@H](NC(=O)OCc1ccccc1)C(=O)N[C@H](C(=O)N[C@H](C=O)CCCCN)C(C)C (Cbz-Leu-Val-Lys-aldehyde)" experimentalresult=4.73

====

Each entry below lists one item and its recorded IC50 value.
- assayTarget: Plasminogen (Rattus norvegicus, UniProt Q01177)
- testDescription: Inhibition of plasmin
Where a SMILES comes first, the peptide text is derived from it. [ ]: non-standard residue; d: D form. The star is where a group is joined. Orn = NCCC[C@H](N)C(=O)O; Cbz = O=C(OCc1ccccc1)*
measuredMetric: IC50 (µM)

compound="CC(C)C[C@H](NC(=O)OCc1ccccc1)C(=O)N[C@H](C(=O)N[C@H](C=O)CCCN)C(C)C (Cbz-Leu-Val-[Orn]-aldehyde)" experimentalresult=432
compound="CC(C)C[C@H](NC(=O)[C@H](Cc1ccccc1)NC(=O)OCc1ccccc1)C(=O)N[C@H](C=O)CCCCN (Cbz-Phe-Leu-Lys-aldehyde)" experimentalresult=8.9
compound=CC(C)C[C@H](NC(=O)OCc1ccccc1)C(=O)N[C@@H](CC(C)C)C(=O)N[C@H](C=O)CCCN=C(N)N experimentalresult=128
compound="CC(C)C[C@H](NC(=O)OCc1ccccc1)C(=O)N[C@@H](Cc1ccccc1)C(=O)N[C@H](C=O)CCCN=C(N)N (Cbz-Leu-Phe-Arg-aldehyde)" experimentalresult=79.9
compound="CC(C)C[C@H](NC(=O)OCc1ccccc1)C(=O)N[C@@H](CC(C)C)C(=O)N[C@H](C=O)CCCCN (Cbz-Leu-Leu-Lys-aldehyde)" experimentalresult=184
compound="CC(C)C[C@H](NC(=O)OCc1ccccc1)C(=O)N[C@@H](Cc1ccccc1)C(=O)N[C@H](C=O)CCCCN (Cbz-Leu-Phe-Lys-aldehyde)" experimentalresult=47
compound="CC(C)C[C@H](NC(=O)OCc1ccccc1)C(=O)N[C@H](C(=O)N[C@H](C=O)CCCN=C(N)N)C(C)C (Cbz-Leu-Val-Arg-aldehyde)" experimentalresult=10.2

====

Each entry below lists one item and its recorded IC50 value.
- assayTarget: Kallikrein-1 (Homo sapiens, UniProt P06870)
- Sequence (P06870 whole entry): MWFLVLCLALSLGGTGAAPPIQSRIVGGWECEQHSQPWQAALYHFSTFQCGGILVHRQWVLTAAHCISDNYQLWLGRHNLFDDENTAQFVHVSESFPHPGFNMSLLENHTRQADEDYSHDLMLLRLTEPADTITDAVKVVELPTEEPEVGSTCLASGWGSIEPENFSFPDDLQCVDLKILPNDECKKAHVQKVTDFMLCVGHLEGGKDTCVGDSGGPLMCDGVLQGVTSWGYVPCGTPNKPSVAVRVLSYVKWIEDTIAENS
Where a SMILES comes first, the peptide text is derived from it. [ ]: non-standard residue; d: D form. The star is where a group is joined. Orn = NCCC[C@H](N)C(=O)O; Cbz = O=C(OCc1ccccc1)*
measuredMetric: IC50 (µM)

compound="CC(C)C[C@H](NC(=O)OCc1ccccc1)C(=O)N[C@@H](Cc1ccccc1)C(=O)N[C@H](C=O)CCCCN (Cbz-Leu-Phe-Lys-aldehyde)" experimentalresult=20.3
compound="CC(C)C[C@H](NC(=O)[C@H](Cc1ccccc1)NC(=O)OCc1ccccc1)C(=O)N[C@H](C=O)CCCN=C(N)N (Cbz-Phe-Leu-Arg-aldehyde)" experimentalresult=25.7
compound="CC(C)C[C@H](NC(=O)OCc1ccccc1)C(=O)N[C@H](C(=O)N[C@H](C=O)CCCN=C(N)N)C(C)C (Cbz-Leu-Val-Arg-aldehyde)" experimentalresult=11.2
compound="CC(C)C[C@H](NC(=O)OCc1ccccc1)C(=O)N[C@@H](CC(C)C)C(=O)N[C@H](C=O)CCCCN (Cbz-Leu-Leu-Lys-aldehyde)" experimentalresult=19
compound="CC(C)C[C@H](NC(=O)[C@H](Cc1ccccc1)NC(=O)OCc1ccccc1)C(=O)N[C@H](C=O)CCCCN (Cbz-Phe-Leu-Lys-aldehyde)" experimentalresult=25.6
compound="CC(C)C[C@H](NC(=O)OCc1ccccc1)C(=O)N[C@H](C(=O)N[C@H](C=O)CCCCN)C(C)C (Cbz-Leu-Val-Lys-aldehyde)" experimentalresult=14.8
compound="CC(C)C[C@H](NC(=O)[C@H](Cc1ccccc1)NC(=O)OCc1ccccc1)C(=O)N[C@H](C=O)CCCN (Cbz-Phe-Leu-[Orn]-aldehyde)" experimentalresult=112
compound="CC(C)C[C@H](NC(=O)OCc1ccccc1)C(=O)N[C@@H](Cc1ccccc1)C(=O)N[C@H](C=O)CCCN=C(N)N (Cbz-Leu-Phe-Arg-aldehyde)" experimentalresult=33.3
compound="CC(C)C[C@H](NC(=O)OCc1ccccc1)C(=O)N[C@@H](CC(C)C)C(=O)N[C@H](C=O)CCCN (Cbz-Leu-Leu-[Orn]-aldehyde)" experimentalresult=29.3
compound="CC(C)C[C@H](NC(=O)OCc1ccccc1)C(=O)N[C@@H](Cc1ccccc1)C(=O)N[C@H](C=O)CCCN (Cbz-Leu-Phe-[Orn]-aldehyde)" experimentalresult=82.4
compound="CC(C)C[C@H](NC(=O)OCc1ccccc1)C(=O)N[C@H](C(=O)N[C@H](C=O)CCCN)C(C)C (Cbz-Leu-Val-[Orn]-aldehyde)" experimentalresult=53.8

====

- assayTarget: Plasminogen (Rattus norvegicus, UniProt Q01177)
- testDescription: Evaluated for the inhibition of plasmin.( no inhibition at 400 uM)
Where a SMILES comes first, the peptide text is derived from it. [ ]: non-standard residue; d: D form. The star is where a group is joined. Orn = NCCC[C@H](N)C(=O)O; Cbz = O=C(OCc1ccccc1)*
measuredMetric: IC50

compound="CC(C)C[C@H](NC(=O)OCc1ccccc1)C(=O)N[C@@H](Cc1ccccc1)C(=O)N[C@H](C=O)CCCN (Cbz-Leu-Phe-[Orn]-aldehyde)" experimentalresult="> 400 µM"
